Entries and their hGREM1-His Inhibition IC50, M; W-20-17 cell differentiation assay (alkaline phosphatase)
Target: T1, recombinant human GREM1 (hGREM1-His; C-terminal 10His tagged, R&D, #5190-GR) (human, UniProt O60565 25-184, limits assumed)
T1 sequence: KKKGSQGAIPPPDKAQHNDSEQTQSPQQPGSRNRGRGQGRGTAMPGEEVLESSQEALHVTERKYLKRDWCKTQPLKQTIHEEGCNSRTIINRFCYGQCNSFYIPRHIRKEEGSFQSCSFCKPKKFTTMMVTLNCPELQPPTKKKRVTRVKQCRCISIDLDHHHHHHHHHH
Assay: cell-based or functional assay
Write down the numeric answer in nM and omit the unit.

Below: 9 binders and their reported hGREM1-His Inhibition IC50, M; W-20-17 cell differentiation assay (alkaline phosphatase).
H4H2783N2 (antibody, human IgG4, V domains shown, H4H prefix = human IgG4 Fc) VH: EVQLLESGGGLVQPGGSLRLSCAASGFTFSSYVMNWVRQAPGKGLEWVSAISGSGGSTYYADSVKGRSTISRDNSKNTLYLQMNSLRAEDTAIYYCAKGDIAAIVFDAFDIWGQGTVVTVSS VL: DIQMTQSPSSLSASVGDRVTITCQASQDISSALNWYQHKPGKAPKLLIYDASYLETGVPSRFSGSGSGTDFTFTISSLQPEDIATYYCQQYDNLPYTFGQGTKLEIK | 5.6
H4H2926N (antibody, human IgG4, V domains shown, H4H prefix = human IgG4 Fc) VH: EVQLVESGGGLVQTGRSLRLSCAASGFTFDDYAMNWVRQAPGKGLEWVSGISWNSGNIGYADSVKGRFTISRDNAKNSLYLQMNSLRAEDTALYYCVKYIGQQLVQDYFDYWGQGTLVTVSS VL: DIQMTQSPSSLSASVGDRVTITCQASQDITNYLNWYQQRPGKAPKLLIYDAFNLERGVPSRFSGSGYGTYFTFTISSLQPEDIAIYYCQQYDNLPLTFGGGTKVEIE | 13
H4H6243P (antibody, human IgG4, V domains shown, H4H prefix = human IgG4 Fc) VH: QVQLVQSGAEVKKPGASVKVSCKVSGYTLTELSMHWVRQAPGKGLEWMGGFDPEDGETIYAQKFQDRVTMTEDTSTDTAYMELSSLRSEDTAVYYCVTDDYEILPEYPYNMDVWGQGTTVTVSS VL: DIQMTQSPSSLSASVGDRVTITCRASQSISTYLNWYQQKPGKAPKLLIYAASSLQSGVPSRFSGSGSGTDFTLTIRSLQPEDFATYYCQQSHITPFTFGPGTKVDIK | 5.9
H4H6250P (antibody, human IgG4, V domains shown, H4H prefix = human IgG4 Fc) VH: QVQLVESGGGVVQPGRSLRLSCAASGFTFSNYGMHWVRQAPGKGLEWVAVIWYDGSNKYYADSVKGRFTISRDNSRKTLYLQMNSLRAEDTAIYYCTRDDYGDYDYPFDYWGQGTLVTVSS VL: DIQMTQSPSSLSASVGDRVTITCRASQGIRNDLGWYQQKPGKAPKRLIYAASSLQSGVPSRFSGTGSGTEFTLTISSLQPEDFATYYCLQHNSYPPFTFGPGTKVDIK | 12
H4H6245P (antibody, human IgG4, V domains shown, H4H prefix = human IgG4 Fc) VH: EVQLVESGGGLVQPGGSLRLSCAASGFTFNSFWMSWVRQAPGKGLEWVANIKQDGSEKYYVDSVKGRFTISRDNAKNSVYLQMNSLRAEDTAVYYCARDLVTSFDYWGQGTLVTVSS VL: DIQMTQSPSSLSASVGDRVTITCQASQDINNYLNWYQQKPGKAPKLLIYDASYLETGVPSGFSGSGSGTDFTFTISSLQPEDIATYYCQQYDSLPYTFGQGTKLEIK | 6.1
H4H2889N (antibody, human IgG4, V domains shown, H4H prefix = human IgG4 Fc) VH: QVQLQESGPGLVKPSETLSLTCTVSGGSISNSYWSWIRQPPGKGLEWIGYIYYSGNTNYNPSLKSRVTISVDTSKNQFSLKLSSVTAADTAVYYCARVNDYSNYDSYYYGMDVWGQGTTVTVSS VL: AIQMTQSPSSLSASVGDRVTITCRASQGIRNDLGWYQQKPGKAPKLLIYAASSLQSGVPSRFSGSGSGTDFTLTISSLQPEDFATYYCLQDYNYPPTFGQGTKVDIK | 5.4
H4H6270P (antibody, human IgG4, V domains shown, H4H prefix = human IgG4 Fc) VH: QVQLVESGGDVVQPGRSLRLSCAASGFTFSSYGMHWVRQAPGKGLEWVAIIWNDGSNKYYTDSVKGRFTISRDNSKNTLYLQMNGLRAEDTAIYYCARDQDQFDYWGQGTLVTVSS VL: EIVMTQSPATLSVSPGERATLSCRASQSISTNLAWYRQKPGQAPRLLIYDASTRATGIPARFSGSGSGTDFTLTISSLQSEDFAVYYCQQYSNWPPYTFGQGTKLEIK | 3.1
H4H6233P (antibody, human IgG4, V domains shown, H4H prefix = human IgG4 Fc) VH: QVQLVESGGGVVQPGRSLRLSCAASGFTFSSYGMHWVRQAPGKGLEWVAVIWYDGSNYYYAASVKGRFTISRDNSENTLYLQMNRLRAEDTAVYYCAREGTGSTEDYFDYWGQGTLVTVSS VL: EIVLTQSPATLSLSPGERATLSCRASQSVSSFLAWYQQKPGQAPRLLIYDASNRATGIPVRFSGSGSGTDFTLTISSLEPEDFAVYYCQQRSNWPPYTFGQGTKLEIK | 23
H4H6232P (antibody, human IgG4, V domains shown, H4H prefix = human IgG4 Fc) VH: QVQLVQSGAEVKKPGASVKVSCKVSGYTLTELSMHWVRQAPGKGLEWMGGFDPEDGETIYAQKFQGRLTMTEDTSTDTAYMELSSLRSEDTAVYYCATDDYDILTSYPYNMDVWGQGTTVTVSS VL: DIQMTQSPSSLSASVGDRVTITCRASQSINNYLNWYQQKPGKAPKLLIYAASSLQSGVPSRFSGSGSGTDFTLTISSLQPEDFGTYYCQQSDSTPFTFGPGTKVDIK | 4.5

Answer with the recorded hGREM1-His Inhibition IC50, M; W-20-17 cell differentiation assay (alkaline phosphatase) of H4H2892N (antibody, human IgG4, V domains shown, H4H prefix = human IgG4 Fc) VH: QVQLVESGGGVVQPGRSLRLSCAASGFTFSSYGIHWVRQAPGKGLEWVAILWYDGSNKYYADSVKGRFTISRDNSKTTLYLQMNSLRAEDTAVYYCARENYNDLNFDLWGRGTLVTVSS VL: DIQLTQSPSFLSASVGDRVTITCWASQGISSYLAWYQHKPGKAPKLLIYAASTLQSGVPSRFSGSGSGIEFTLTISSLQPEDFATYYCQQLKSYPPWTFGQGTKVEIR only.
4.4

// data source = patent US20200157194A1
